test system: human primary hepatocytes; assay: Metabolic disposition of [^14C]-Compound 1 and [^14C]-2′-C-methyl guanosine in human primary hepatocytes (incubation medium, cellular extracts, nucleotide levels); assay type: in vitro ADME; settings: human hepatocytes Hu775; 1 μM [^14C]-2′-C-methyl guanosine; 8 h
Major metabolites observed in cellular extracts (% of total radioactivity) by entry:

Please review the entries below; each comes with its answer.
{"COMPOUND": "C[C@@]1(O)[C@H](O)[C@@H](CO)O[C@H]1n1cnc2c(=O)[nH]c(N)nc21 [2′-C-methyl guanosine, 9-(2-C-methyl-β-D-ribofuranosyl)guanine, reference compound]", "ENDPOINT_RESULT": "65.8 % of total radioactivity"}
{"COMPOUND": "C[C@@]1(O)[C@H](O)[C@@H](COP(=O)(O)OP(=O)(O)OP(=O)(O)O)O[C@H]1n1cnc2c(=O)[nH]c(N)nc21 [Compound 7]", "ENDPOINT_RESULT": "27.3 % of total radioactivity"}

Now look at this entry.
The compound C[C@@]1(O)[C@H](O)[C@@H](COP(=O)(O)OP(=O)(O)O)O[C@H]1n1cnc2c(=O)[nH]c(N)nc21 [Compound 6] on human primary hepatocytes: Major metabolites observed in cellular extracts (% of total radioactivity) was 6.83 % of total radioactivity
